Where do the numbers come from? From patent US20190119366A1.

So I've got a bunch of binders here, and I need their kon values.
Target: T1, recombinant human KAAG1 (Kidney associated antigen 1) (human, UniProt Q9UBP8 1-84)
T1 construct: also called KAAG1 protein
T1 sequence: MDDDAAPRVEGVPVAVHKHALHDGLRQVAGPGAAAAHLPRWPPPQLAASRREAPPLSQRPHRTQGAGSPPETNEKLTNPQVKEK
Test: SPR (BioRad ProteOn XPR36): antibody captured on an anti-human IgG Fc surface, KAAG1 injected as analyte, 1:1 Langmuir fit
Number in M⁻¹ s⁻¹, nothing else.

Query: Item under review: humanized 3A4 antibody Lh1Hh4 (antibody, human IgG1, kappa, V domains shown, Human IgG1/kappa) VH: QIQLVQSGAEVKKPGASVKVSCKASGYTFTDDYMSWVKQAPGQGLEWIGDINPYNGDTNYNQKFKGKATLTVDKSTSTAYMELSSLRSEDTAVYYCARDPGAMDYWGQGTLVTVSS VL: DIVMTQTPLSLPVTPGEPASISCRSSQSLLHSNGNTYLEWYLQKPGQSPQLLIYTVSNRFSGVPDRFSGSGSGTDFTLKISRVEAEDVGVYYCFQGSHVPLTFGQGTKLEIKR . Reported kon?
Reply: 5.14e+06

Query: Can you handle humanized 3A4 antibody Lh2Hh3 (antibody, human IgG1, kappa, V domains shown, Human IgG1/kappa) VH: QIQLVQSGAEVKKPGASVKVSCKASGYTFTDDYMSWVRQAPGQGLEWIGDINPYNGDTNYNQKFKGRATLTVDKSTSTAYMELSSLRSEDTAVYYCARDPGAMDYWGQGTLVTVSS VL: DVVMTQTPLSLPVTPGEPASISCRSSQSLLHSNGNTYLEWYLQKPGQSPKLLIYTVSNRFSGVPDRFSGSGSGTDFTLKISRVEAEDVGVYYCFQGSHVPLTFGQGTKLEIKR next?
Reply: 4.46e+06

Query: Similarly, humanized 3A4 antibody Lh1Hh1 (antibody, human IgG1, kappa, V domains shown, Human IgG1/kappa; 100% humanized frameworks; also called H1 L1; H1L1) VH: QVQLVQSGAEVKKPGASVKVSCKASGYTFTDDYMSWVRQAPGQGLEWMGDINPYNGDTNYNQKFKGRVTITADTSTSTAYMELSSLRSEDTAVYYCARDPGAMDYWGQGTLVTVSS VL: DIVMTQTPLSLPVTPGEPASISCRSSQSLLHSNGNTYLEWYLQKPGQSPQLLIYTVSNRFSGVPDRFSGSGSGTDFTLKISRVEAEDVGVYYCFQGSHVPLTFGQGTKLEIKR ?
Reply: 6.93e+06
